Origin of measurements: patent US10039752B2

Tested on: PAXF 2005
method.summary: In vitro 3D clonogenic assay
Assay type: cell-based
experimental.parameters: Homo sapiens, read-out: Absolute IC50
property.measured: IC50 (µM)
Unit µM implied. Number only.

Given the compound CC(=O)N=c1sc(S(N)(=O)=O)nn1C [Methazolamide] , what is its reported IC50?
523

----------
Tested on: twelve selected human pancreatic cancer cell lines
method.summary: cells
experimental.parameters: Homo sapiens, Pancreatic cancer cell, read-out: Absolute IC50, Geometric Mean
property.measured: IC50 (µM)
Unit µM implied. Number only.

Given the molecule CC(=O)N=c1sc(S(N)(=O)=O)nn1C [Methazolamide] , what is its reported IC50?
1840

----------
Test system: PAXF 2059
method.summary: In vitro 3D clonogenic assay
Type: cell-based
experimental.parameters: Homo sapiens, read-out: Absolute IC50
Text: Cell lines were routinely passaged one or twice weekly.
property.measured: IC50 (µM)
Unit µM implied. Number only.

Given the compound CC(=O)N=c1sc(S(N)(=O)=O)nn1C [Methazolamide] , what is its reported IC50?
820

----------
Tested on: PAXF BxPC-3
method.summary: In vitro 3D clonogenic assay
Type: cell-based
experimental.parameters: Homo sapiens, read-out: Relative IC50
property.measured: IC50

Given the compound CC(=O)N=c1sc(S(N)(=O)=O)nn1C [Methazolamide] , what is its reported IC50?
808 µM

----------
Test system: PAXF 1986L, PAXF 546L, PAXF Capan-2, and PAXF MIA-Pa-Ca-2
method.summary: cells
experimental.parameters: Homo sapiens, 192 h, read-out: relative IC50 values, range over four cell lines
pIC50: −log10 of the molar value.
Assignment: determine reported pIC50 for the given molecules.

Notebook: pull reported pIC50 for PAXF 1986L, PAXF 546L, PAXF Capan-2, and PAXF MIA-Pa-Ca-2, entry CC(=O)N=c1sc(S(N)(=O)=O)nn1C [Methazolamide]
3.09 to 3.53

Next molecule: Nc1ccn([C@@H]2O[C@H](CO)[C@@H](O)C2(F)F)c(=O)n1
7.21 to 7.89

----------
Tested on: PAXF 1998L
method.summary: In vitro 2-D assay (CellTiter-Blue cell viability, 96 h)
Assay type: cell-based
experimental.parameters: Homo sapiens, PAXF 1998, 96 hours treatment, read-out: Absolute IC50
property.measured: IC50 (mM)
Unit mM implied. Number only.

Notebook: pull reported IC50 for PAXF 1998L, entry CC(=O)N=c1sc(S(N)(=O)=O)nn1C [Methazolamide]
2.51

----------
System: PAXF HPAC
method.summary: In vitro 3D clonogenic assay
Format: cell-based
experimental.parameters: Homo sapiens, read-out: Absolute IC50
property.measured: IC50 (µM)
Unit µM implied. Number only.

Given the compound CC(=O)N=c1sc(S(N)(=O)=O)nn1C [Methazolamide] , what is its reported IC50?
1360
